MEASUREMENT TARGET: recombinant N-terminal SH3 domain (SH3N) of CRKL with a C-terminal hexahistidine tag (human)
MEASUREMENT DESCRIPTION: dynamic mass redistribution
OUTCOME MEASURE: Kd (µM)
Lab book: enter the figure in µM, no units written.

Quick check: Kd of QPPPVPAKKS [peptide corresponding to the second PXXPXK motif of SASH1 (aa982–991)] ? 7.38

Provenance of the data: paper PMC6251370
